# human Factor Xa (Homo sapiens, UniProt P00742): pKi values follow
# Sequence (P00742 235-488 limits assumed): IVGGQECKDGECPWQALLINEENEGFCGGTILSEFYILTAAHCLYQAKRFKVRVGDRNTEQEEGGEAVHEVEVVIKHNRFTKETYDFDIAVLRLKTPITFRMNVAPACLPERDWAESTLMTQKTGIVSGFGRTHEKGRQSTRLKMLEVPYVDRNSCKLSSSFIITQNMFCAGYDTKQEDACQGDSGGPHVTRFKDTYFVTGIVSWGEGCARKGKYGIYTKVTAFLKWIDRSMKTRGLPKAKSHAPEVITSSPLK
# Sequence (P00742 41-179 partner limits assumed): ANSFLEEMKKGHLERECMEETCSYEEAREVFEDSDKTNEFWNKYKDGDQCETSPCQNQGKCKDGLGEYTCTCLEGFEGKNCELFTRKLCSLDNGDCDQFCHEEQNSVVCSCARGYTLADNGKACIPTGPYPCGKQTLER
One number for each entry, as −log10 of the molar value.

Would you please look over these solved cases?
Cc1cc(I)c(O)c(C(=O)Nc2ccc(C(=N)N)cc2)c1 ... 6.06
N=C(N)Nc1ccc(NC(=O)c2cc3ccccc3cc2O)cn1 ... 3.89
Cc1cc(I)c(O)c(C(=O)Nc2ccc(NC(=N)N)nc2)c1 ... 3.54

Give pKi for each of the items listed below.
1. CC(C)c1cc(C(=O)Nc2ccc(C(=N)N)cc2)c(O)c(C(C)C)c1
2. Cc1cc(Br)c(O)c(C(=O)Nc2ccc(C(=N)N)cc2)c1

4.47
6.08
